System: MS2 coat protein
measurement description: apparent KD of MS2 coat protein; designed switch direction (-1 OFF switch, 1 ON switch): -1; higher = weaker reporter binding
test parameters: input ligand: microRNA oligo, concentration not stated
recorded metric: apparent KD of MS2 coat protein (nM)
Please respond with the number in nM and leave the unit unwritten.

Here's what some known entries look like.
INSERT INTO measurements (sequence_chain, target_under_test, value_measured) VALUES
  ('AGUCAGGCGGUAGGAUAUCCAAAUCGAGUGACCCUUUCAUAACAUGAGGAUCACCCAUGUCGGUGGGAGAAGGGCCGUACGGCG [JL ViennaUCT Atra mod 3] (Eterna round: R96, puzzle: Exclusion NG 2)', 'MS2 coat protein', 88),
  ('UACAUGAGGAUCACCCAUGUUUUGUCGUGUAUGGUAUUUAUCUAGGAUAUCAUAUUAUUUAUUUAUGAGAAGGAGAAUAUUAAU [JMF''s solution 95] (Eterna round: R96, puzzle: Exclusion NG 3)', 'MS2 coat protein', 27.1),
  ('CUUGUUUAUGUAGGAUAUGCCUGGCGUGCCUUUGCAGAAGGACAUGAGGAUCACCCAUGUAACAUGAGGCUCCACCUUGUCGCC [salish99_ExNG1_r04_117] (Eterna round: R96, puzzle: Exclusion NG 1)', 'MS2 coat protein', 111);

Proceeding to the next sequence to report its apparent KD of MS2 coat protein.
Ask | Form field: reported apparent KD of MS2 coat protein of GGUAGAGUGGUAGGAUAUCCGGCUGUUUCAGUCGGAGAAGGACCACAGUCACUGGGUCCAAAUAUGGGUGACCAUGUAUCUACC [pwkr exNG1 F6.6] (Eterna round: R96, puzzle: Exclusion NG 1)
Reply | 337

----------
Tested on: K4 kissing-loop RNA reporter;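 also: bound reporter read as fluorescence of individual clusters on recovered sequencing chips by microscopy, with normalized cluster intensities fitted with a binding model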
measurement description: apparent KD of K4 kissing-loop reporter; higher = weaker reporter binding
test parameters: Eterna round: R107; input ligand: arginine 13.2 mM
The entries below come with measured apparent KD of K4 kissing-loop reporter values attached.
Answer with the value and then the unit.

Reference set (5 entries):
INSERT INTO results (sequence_chain, target_under_test, value_measured) VALUES
  ('AAAAUAACCCAGUGAUGUUGGUAUGCAGAUACCAGCGACGAAAGUCGCCCUUGGCAGCUGUGGACGUACAAAAUAAGUACGUCCU', 'K4 kissing-loop RNA reporter', '834 nM'),
  ('GGUAGCAUGGCGGCCGCCACUCUUCAUUAGUGAUGUUAAUGCCGAGUGCGCUAACUCCAACUGGAGAGGACCGGGCCAUGCUACC', 'K4 kissing-loop RNA reporter', '122 nM'),
  ('CCUAUCUCUUACGAUACCAGUCAAUGAUAUUUUAUCAAUGCCCUCACCGAGUGAUGUUCGGACCCUUGGCAGCGUCUGGGAUAGG [pvppimullin]', 'K4 kissing-loop RNA reporter', '170 nM'),
  ('GCCGUACGCAUGGAUACCAGUCAAGAUCAGUGAUGUUGAUCUUUUAUAGAGCCUACAUUUGACCCUUGGCAGCCAUGCGUACGGC', 'K4 kissing-loop RNA reporter', '320 nM'),
  ('UGAUAAAGCAGUGAUGUUGCAAGUAAUGAUACCAGUUAAGAAGAGAACCCUUGGCAGCAUAAAGUGCGCUCUAAUGAGUGUGCUU [whbob_SS_Theo_A_w51]', 'K4 kissing-loop RNA reporter', '138 nM');

Ask | If you can, please state the reported apparent KD of K4 kissing-loop reporter value of CUCGAGUGAUGUUCGAUUAUGUAUACAGAUACCAGUGAAUUUUAACACCCUUGGCAGCUGGUAGAAUCAUUGUAAUUUUAACUAG [JR_ExcTheophyA_Sub001] .
Reply | 260 nM

The origin of these recorded values is the supplement of paper PMC9170038.
